Assignment: determine reported Kcat for the given molecules.
experimental-protocol: Standard protocol for determination of kcat and KM (continuous spectrophotometric assay, Acetyl CoA hydrolysis at 235 nm)
Format: biochemical
experimental-parameters: purified protein; about 23° C.; 20 mM HEPES pH 6.8, 10% ethylene glycol, 0.2 mM acetyl CoA
Answers are plain numbers, in s⁻¹.

Please go through the list and note Kcat for each molecule.
1. SEQ ID NO: 493: GAT polypeptide (protein, 4_1B10, GAT polypeptide) MIEVKPINAEDTYELRHRILRPNQPIEVCMYETDLLRGAFHLGGFYGGKLISIASFHQAEHSDLQGQKQYQLRGMATLEGYRDQKAGSSLIRHAEQILRKRGADMLWCNARTSASGYYKKLGFSEQGEIFETPPVGPHILMYKRIT
2. SEQ ID NO: 331: GAT polypeptide (protein, 15_12D8, GAT polypeptide) MIEVKPINAEDTYEIRHRILRPNQPLEACKYETDLLGGTFHLGGYYRGKLVSIASFHQAEHPELEGQKQYQLRGMATLEGYREQKAGSTLIRHAEELLRKKGADLLWCNARTSASGYYKKLGFSEQGKVYDIPPVGPHILMYKKLT

Reply text:
1.285
0.995

Data origin: patent US8008547B2
